Target: T1, cynomolgus monkey BCMA (cynomolgus monkey, UniProt A0A2K5UD97 1-53)
T1 construct: Soluble analyte in SPR; construct not described; also called cyBCMA; Cyno BCMA
T1 sequence (A0A2K5UD97 entry or part of it): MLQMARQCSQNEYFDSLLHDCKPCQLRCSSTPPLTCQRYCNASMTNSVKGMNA
Assay: SPR, IgG immobilised, 37 C
assay_readout: T ½ (min)

[[record]]
binder = "L3.PY/H2.QR (antibody, V domains shown, IgG) VH: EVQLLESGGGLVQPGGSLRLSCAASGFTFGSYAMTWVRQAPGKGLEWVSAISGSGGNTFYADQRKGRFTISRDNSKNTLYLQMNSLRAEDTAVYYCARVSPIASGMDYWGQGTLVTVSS VL: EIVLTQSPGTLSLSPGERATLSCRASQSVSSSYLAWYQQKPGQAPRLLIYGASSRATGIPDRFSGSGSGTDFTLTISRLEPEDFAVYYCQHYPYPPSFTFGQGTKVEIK"
unit_label = "min"
test_value = 1.76

[[record]]
binder = "L3.PY/L1.AH/H2.YQ (antibody, V domains shown, IgG) VH: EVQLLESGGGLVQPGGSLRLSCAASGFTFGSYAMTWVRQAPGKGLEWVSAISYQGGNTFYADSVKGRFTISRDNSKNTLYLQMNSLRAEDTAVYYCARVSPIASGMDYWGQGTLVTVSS VL: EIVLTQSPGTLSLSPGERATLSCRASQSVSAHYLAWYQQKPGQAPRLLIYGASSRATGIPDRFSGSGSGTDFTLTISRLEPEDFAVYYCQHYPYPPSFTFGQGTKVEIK"
unit_label = "min"
test_value = 2.68

